System: HDAC (HeLa nuclear extract)
ASSAY NOTES: Test for evaluation of an HDAC inhibitory effect (HDAC Fluorimetric Assay/Drug Discovery Kit, Biomol)
Type: biochemical
CONDITION DETAILS: final concentration of test compound 30 μM, rates of more than 100% are shown as 100%
READOUT TYPE: Enzyme Inhibitory Rate (%)

CCN(CC)c1ccc(NC(=O)N(CCCN(C)C)Cc2ccc(C(=O)Nc3ccccc3N)nc2)cc1 = 100
O=C(/C=C/c1cccc(C(=O)NO)c1)NO [CBHA, reference compound] = 99
CN(C)CCN(Cc1ccc(C(=O)Nc2ccccc2N)nc1)C(=O)Nc1ccc2c(c1)OCCO2 = 98
CN(C)CCCN(Cc1ccc(C(=O)Nc2ccccc2N)nc1)C(=O)Nc1ccc(C#N)cc1 = 99
Nc1ccccc1NC(=O)c1ccc(CN(CCCN2CCCC2)C(=O)Nc2cccnc2)cn1 = 98
Nc1ccccc1NC(=O)c1ccc(CN(CCCN2CCOCC2)C(=O)Nc2cccnc2)cn1 = 96
CN(C)CCCN(Cc1ccc(C(=O)Nc2ccccc2N)nc1)C(=O)Nc1ccc(OC(F)(F)F)cc1 = 98
CN1CCN(CCCN(Cc2ccc(C(=O)Nc3ccccc3N)nc2)C(=O)Nc2ccc3c(c2)OCCO3)CC1 = 99
CC(/C=C/C(=O)NO)=C\[C@@H](C)C(=O)c1ccc(N(C)C)cc1 [Trichostatin A, reference compound] = 100
CN(C)CCCN(Cc1ccc(C(=O)Nc2ccccc2N)nc1)C(=O)Nc1nc2ccc(F)cc2s1 = 98

(1) CN1CCN(CCN(Cc2ccc(C(=O)Nc3ccccc3N)nc2)C(=O)Nc2cccc(F)c2)CC1
(2) Cc1ccc(C(=O)c2cc(/C=C/C(=O)NO)n(C)c2)cc1 [MC1293, reference compound]
Prompt: Which has the smaller recorded Enzyme Inhibitory Rate (%), 1 or 2 ? Mark your answer with the label of the selected entry.
Completion: 2
(2: 65%, 1: 97%)

###

Tested on: HDAC (HeLa nuclear extract)
ASSAY NOTES: Test for evaluation of an HDAC inhibitory effect (HDAC Fluorimetric Assay/Drug Discovery Kit, Biomol)
Type: biochemical
CONDITION DETAILS: final concentration of test compound 30 μM, rates of more than 100% are shown as 100%
READOUT TYPE: Enzyme Inhibitory Rate (%)

CN(C)c1ccc(C(=O)NCCCCCCC(=O)NO)cc1 [M 344, reference compound] = 99
CN(C)CCCN(Cc1ccc(C(=O)Nc2ccccc2N)nc1)C(=O)Nc1ccc(F)c(F)c1 [Compound 1-4] = 100
COc1ccc(NC(=O)N(CCCN(C)C)Cc2ccc(C(=O)Nc3ccccc3N)nc2)cc1 [Compound 1-6] = 100
Cc1ccc(NC(=O)N(CCCN(C)C)Cc2ccc(C(=O)Nc3ccccc3N)nc2)cc1F [Compound 1-13] = 100
CN(C)CCCN(Cc1ccc(C(=O)Nc2ccccc2N)nc1)C(=O)Nc1nccs1 [Compound 1-41] = 96
COc1ccc2nc(NC(=O)N(CCCN(C)C)Cc3ccc(C(=O)Nc4ccccc4N)nc3)sc2c1 [Compound 1-42] = 98
CN(C)CCCN(Cc1ccc(C(=O)Nc2ccccc2N)nc1)C(=O)NCC(=O)c1ccccc1 [Compound 1-40] = 97
CCOC(=O)CCN(Cc1ccc(C(=O)Nc2ccccc2N)nc1)C(=O)Nc1ccc(N(C)C)cc1 [Compound 1-27] = 97
Cc1cccc(NC(=O)N(CCN(C)C)Cc2ccc(C(=O)Nc3ccccc3N)nc2)c1 [Compound 1-79] = 98
CCN(CC)CCCN(Cc1ccc(C(=O)Nc2ccccc2N)nc1)C(=O)Nc1ccc(F)c([N+](=O)[O-])c1 [Compound 1-51] = 98
Nc1ccccc1NC(=O)c1ccc(CN(CCCN2CCOCC2)C(=O)Nc2ccc3c(c2)CCO3)cn1 [Compound 1-38] = 97
CN(C)c1ccc(NC(=O)N(CCCN2CCOCC2)Cc2ccc(C(=O)Nc3ccccc3N)nc2)cc1 [Compound 2-1] = 98

###

Test system: HDAC (HeLa nuclear extract)
ASSAY NOTES: Test for evaluation of an HDAC inhibitory effect (HDAC Fluorimetric Assay/Drug Discovery Kit, Biomol)
Assay type: biochemical
CONDITION DETAILS: final concentration of test compound 30 μM, rates of more than 100% are shown as 100%
READOUT TYPE: Enzyme Inhibitory Rate (%)

Cc1cc(NC(=O)N(CCCN(C)C)Cc2ccc(C(=O)Nc3ccccc3N)nc2)ccc1F = 100
Nc1ccccc1NC(=O)c1ccc(CNc2nccc(-c3cccnc3)n2)cc1 [MGCD-0103 free base, reference compound] = 96
N#Cc1ccc(NC(=O)N(CCCO)Cc2ccc(C(=O)Nc3ccccc3N)nc2)cc1 = 96
CN(C)CCCN(Cc1ccc(C(=O)Nc2ccccc2N)nc1)C(=O)Nc1ccc2c(c1)OCCO2 = 100
CN(C)CCCN(Cc1ccc(C(=O)Nc2ccccc2N)nc1)C(=O)Nc1nc2ccccc2[nH]1 = 99
Nc1ccccc1NC(=O)c1ccc(CNC(=O)OCc2cccnc2)cc1 [MS 275, reference compound] = 99
Nc1ccccc1NC(=O)c1ccc(CN(CCO)C(=O)Nc2ccc3c(c2)OCCO3)cn1 = 99
CN(C)CCCN(Cc1ccc(C(=O)Nc2ccccc2N)nc1)C(=O)Nc1cccc(F)c1 = 98
Nc1ccccc1NC(=O)c1ccc(CN(CCCCCN2CCOCC2)C(=O)NC2CCCC2)cn1 = 91
CN(C)CCN(Cc1ccc(C(=O)Nc2ccccc2N)nc1)C(=O)Nc1nccs1 = 98
Nc1ccccc1NC(=O)c1ccc(CN(CCCN2CCOCC2)C(=O)NCCc2ccccc2)cn1 = 100
Nc1ccccc1NC(=O)c1ccc(CN(CCCO)C(=O)Nc2ccc3c(c2)OCO3)cn1 = 97
CN(C)CCCN(Cc1ccc(C(=O)Nc2ccccc2N)nc1)C(=O)Nc1nc2ccccc2s1 = 100
Cc1cccc(NC(=O)N(CCCN2CCC(C)CC2)Cc2ccc(C(=O)Nc3ccccc3N)nc2)c1 = 100
Nc1ccccc1NC(=O)c1ccc(CN(CCCCN2CCOCC2)C(=O)Nc2ccc3c(c2)OCCO3)cn1 = 98
COc1ccccc1NC(=O)N(CCCCN1CCOCC1)Cc1ccc(C(=O)Nc2ccccc2N)nc1 = 97
CN(C)CCN(Cc1ccc(C(=O)Nc2ccccc2N)nc1)C(=O)Nc1cccc(F)c1 = 98
CCN(CC)CCCN(Cc1ccc(C(=O)Nc2ccccc2N)nc1)C(=O)Nc1ccc(F)c(F)c1 = 98
CN(C)CCN(Cc1ccc(C(=O)Nc2ccccc2N)nc1)C(=O)Nc1ccsc1 = 97
